Listing of entries alongside the reported cell viability.
# Test system: Caco-2
# METHOD_SUMMARY: cell viability relative to DMSO; higher = less toxic
# MEASUREMENT_SETUP: 72 h; 1 nM
Mention the unit after the number when you answer.

INSERT INTO measurements (smiles_data, val) VALUES
  ('O=C(O)CCN(O)C(=O)CCCCCCCCC1CC1', '89%'),
  ('CC(=O)NCCc1c[nH]c2ccccc12', '93.5%'),
  ('C=CC(C)(C)c1cc(/C=C/C(=O)c2ccc(O)cc2)c(OC)cc1O', '92.4%'),
  ('CC(C)(C)c1cc(C=C(C#N)C#N)cc(C(C)(C)C)c1O', '96.5%');

Could you now consider this next compound?
May I ask what cell viability has been recorded for "Cc1cc(Nc2ncnc3ccc(-c4ccc(CNCCS(C)(=O)=O)o4)cc23)ccc1Oc1ccn2ncnc2c1" ?
102%

* * *

# System: Calu-3
# METHOD_SUMMARY: cell viability relative to DMSO; higher = less toxic
# MEASUREMENT_SETUP: 72 h; 1 nM
Listing of entries alongside the reported cell viability.
Mention the unit after the number when you answer.

Some solved cases for reference:
INSERT INTO assay_data (compound, val) VALUES
  ('COc1cc(C)nc(-n2nc(C)cc2OC)n1 [epirizole]', '91.9%'),
  ('CCN(CC)Cc1cc(Nc2ccnc3cc(Cl)ccc23)ccc1O', '114%'),
  ('C[C@@H](Oc1ccc(Cl)cc1)c1ccnc2ncnn12', '118%'),
  ('COc1ccccc1OCC(O)CN1CCN(CC(=O)Nc2c(C)cccc2C)CC1 (stereo not given)', '95%');

May I ask what cell viability has been recorded for "COCCNC(=O)Cn1cnc([N+](=O)[O-])n1" ?
96.7%

Please do the same for "C=C(CC)C(=O)c1ccc(OCC(=O)O)c(Cl)c1Cl" as well.
90.3%

Please do the same for "CC(=O)Nc1ccc(S(=O)(=O)Nc2ccc([N+](=O)[O-])cc2)cc1" as well.
96.5%

Please do the same for N[C@H]1CCN(O)C1=O [HA-966-(S)-(-)] as well.
104%

Please do the same for COc1ccc2[nH]c([S+]([O-])Cc3ncc(C)c(OC)c3C)nc2c1 (stereo not given) [omeprazole] as well.
115%

Please do the same for "CCN(CC)CCOC(=O)c1cc(Cl)c(N)cc1OC" as well.
107%

* * *

# System: Caco-2
# METHOD_SUMMARY: drug sensitivity score (DSS) for viability; higher = more toxic; extreme values may be limits of the assay
# MEASUREMENT_SETUP: 72 h
Listing of entries alongside the reported drug sensitivity score.

Some solved cases for reference:
INSERT INTO measurements (compound, val) VALUES
  ('CC(Oc1c(Cl)cccc1Cl)C1=NCCN1 (stereo not drawn) [lofexidine]', 0),
  ('COC(=O)Nc1nc2cc([S+]([O-])c3ccccc3)ccc2[nH]1 (stereo not drawn) [oxfendazole]', 0),
  ('CCCCc1ccc(NS(=O)(=O)c2ccc(F)cc2)cc1', 0),
  ('C=CC(C)(C)c1cc(/C=C/C(=O)c2ccc(O)cc2)c(OC)cc1O [licochalcone-A]', 2.8),
  ('N[C@@H](C(=O)O)c1ccc(C(=O)O)c(O)c1 (racemic) [4-carboxy-3-hydroxyphenylglycine-(RS)]', 0);

May I ask what drug sensitivity score has been recorded for COc1cccc2c1C(=O)c1c(O)c3c(c(O)c1C2=O)C[C@@](O)(C(=O)CO)C[C@@H]3O[C@H]1C[C@H](N2CCO[C@H](OC)C2)[C@H](O)[C@H](C)O1 [nemorubicin] ?
35.1

Please do the same for CCN1CCN(Cc2ccc(-c3cc4c(N[C@H](C)c5ccccc5)ncnc4[nH]3)cc2)CC1 [AEE788] as well.
2.4

Please do the same for OCC(CO)N[C@H]1C[C@](O)(CO)[C@@H](O)[C@H](O)[C@H]1O [voglibose] as well.
0
